- System: NCI-H460 lung
- Assay Remarks: NCI-60 one-dose screen, 48 h
- Measurement Context: 10 µM unless noted
- Procedure: Growth inhibition of the NCI-H460 human Non-Small Cell Lung tumor cell line is measured as a screen for anti-cancer activity. Cells are grown in 96 well plates and exposed to the test compound for 48 hours. Compounds are tested at a single concentration, which is 10^-5 M for most compounds. The reported endpoint is percent growth (GI% or GIPRCNT), where numbers from 0 - 100% represent growth inhibition, and numbers from -100% - 0 represent cell death. […]
This is part of a sample that, as a whole, favours compounds with a hit. Of some 83,000 tested, about 20% had one in any assay. Active and inactive are the calls of the source. The calls were made as follows: active = growth percent below 10; inactive = the rest.
Possible outcomes: active, inactive

* CCOc1ccc(Nc2nc(-c3ccc4c(c3)NC(=O)CO4)cs2)cc1 | inactive
* Nc1c(C(=O)Nc2cccc3cnccc23)sc2nc3c(cc12)CN(Cc1ccccc1)CC3 | inactive
* COc1cc(/C=C\c2cc(OC)c(OC)c(OC)c2)cc(NC(=O)/C=C/c2cc(OC)c(OC)c(OC)c2)c1OC | inactive
* COc1ccc(-c2nc3sccn3c2/C=C/C(=O)c2ccc3c(c2)OCO3)cc1 | inactive
* CC(C)N1C(=O)/C(=C2\SC(=S)N(C(C)C)C2=O)SC1=S | inactive
* C#Cc1cccc(NC(=O)c2cccc(NC(=O)CCl)c2)c1 | active
* COc1ccccc1NS(=O)(=O)c1cccc(C(=O)Nc2ccc(Br)cc2)c1 | inactive
* O=C(Cc1ccc(/C=C/C(=O)c2nccs2)cc1)Nc1ccccc1 | inactive
* O=Cc1ccc(-c2cn3ccnc3c(-c3ccc4ncn(Cc5ccccc5)c4c3)n2)cc1 | inactive
* CC(C)c1ccc(Nc2ccc3c(OCCCN4CCN(C)CC4)cccc3n2)cc1 | inactive
* Cc1ccc(S(=O)(=O)NNC(=O)/C(=C\c2ccc(Cl)cc2)c2nc3ccccc3s2)cc1 | inactive

---

- System: SN12C renal
- Assay Remarks: NCI-60 one-dose screen, 48 h (100 = growth as untreated, 0 = no growth, -100 = all killed)
- Measurement Context: 10 µM unless noted
About 83,000 compounds went through this panel and 20% of them were active in at least one assay; those are over-represented in the sample as a whole.
Assay Readout: growth (%)

- COc1ccc(-c2cnc3c(-c4cccc5cnccc45)cnn3c2)cc1: 58.8
- CC(C)N1C(=O)/C(=C2\SC(=S)N(C(C)C)C2=O)SC1=S: 93.1
- CCN(CC)CC[n+]1cc2cc(OC)c(OC)cc2c2ccc3cc4c(cc3c21)OCO4: 3.54
- CN1CCN(C(=O)[C@]23CCC(C)(C)C[C@H]2C2=CC[C@@H]4[C@@]5(C)C/C(=C/c6cccnc6)C(=O)C(C)(C)[C@@H]5CC[C@@]4(C)[C@]2(C)CC3)CC1: 57.8

---

- Tested on: NCI-H226 lung
- Assay Remarks: NCI-60 one-dose screen, 48 h (100 = growth as untreated, 0 = no growth, -100 = all killed)
- Measurement Context: 10 µM unless noted
About 83,000 compounds went through this panel and 20% of them were active in at least one assay; those are over-represented in the sample as a whole.
Assay Readout: growth (%)

• Cc1ccc(-n2c3c(c(-c4ccccc4)c2-c2ccccc2)C2=NCCN2C=N3)cc1 = 72
• O=C(CCN1CCCC1)Nc1ccc2c(NCCCCc3ccccc3)c3ccccc3nc2c1 = 63.1
• COc1ccc(CCn2cncc2-c2c[nH]c3ccccc23)cc1 = 81.3
• COc1ccccc1NC(=O)C1CC(c2ccc(F)cc2)=NO1 (centres undefined) = 99.2
• COCc1cnccc1NC1CCCCCC1 = 95.7
• CCOC(=O)[C@@H]1CCCN(S(=O)(=O)c2ccc(S(=O)(=O)N(CC)CC)c(F)c2)C1 = 72.6
• CCN(CC)c1ccc(/C=N/NC(=O)CSc2nc3ccccc3c(=O)n2Cc2ccc(S(N)(=O)=O)cc2)c(O)c1 = 31.1
• O=C(Nc1ccccc1C(=O)N/N=C(\c1ccccc1)c1ccccn1)c1ccc(F)cc1 = 27.4
• O=C1NN(C(=O)c2ccccc2)C(c2ccc(Cl)c(Cl)c2)=C/C1=C\c1ccc([N+](=O)[O-])cc1 = 88.7
• CC1(C)NCCC[C@]2(C)[C@H]3CC[C@@H]4[C@H]5[C@H](C(=O)/C=C/c6ccco6)CC[C@]5(CO)CC[C@@]4(C)[C@]3(C)CC[C@@H]12 = 94.8
• CC1(C)CC[C@]2(C(=O)O)CC[C@]3(C)C(=CC[C@@H]4[C@@]5(C)Cc6c([nH]c7ccccc67)C(C)(C)[C@@H]5CC[C@]43C)[C@@H]2C1 = 48.9
• O=S(=O)(NCCNc1nccc(-c2c(-c3cccc(F)c3)nc3sccn23)n1)c1ccc(Br)cc1 = 41.2
• Cc1ccc(S(=O)(=O)Nn2c3c(cc(-c4nc5ccccc5s4)c2=O)CCCCCC3)cc1 = 76.6
• O=Cc1ccc(-c2cn3ccnc3c(-c3ccc4ncn(Cc5ccccc5)c4c3)n2)cc1 = 99.5
• C/C(=N\NC(=O)CSc1nc2ccccc2c(=O)n1CCc1ccc(S(N)(=O)=O)cc1)c1ccccn1 = 43.4
• Nc1ccccc1NC(=O)c1ccc(-n2nc(-c3ccccc3)c3ccccc32)cc1 = 64.7
• CN(CCN(C)c1ccc(C(=N)N)cc1)c1ccc(C(=N)N)cc1 = 84
• CCCCCCOc1ccc(/C=N/Nc2cc(C)nc3ccc(Cl)cc23)cc1 = 87.8
• COc1cc(C2=C(c3cn(C)c4ccccc34)COC2=O)cc(OC)c1OC = 15.3
